test: self-splicing fitness, log relative to wild type (ln ratio); higher = more splicing; Tetrahymena group I intron in knt gene, E. coli kanamycin selection, DiMSum; sequences stand for … in CUCUCU…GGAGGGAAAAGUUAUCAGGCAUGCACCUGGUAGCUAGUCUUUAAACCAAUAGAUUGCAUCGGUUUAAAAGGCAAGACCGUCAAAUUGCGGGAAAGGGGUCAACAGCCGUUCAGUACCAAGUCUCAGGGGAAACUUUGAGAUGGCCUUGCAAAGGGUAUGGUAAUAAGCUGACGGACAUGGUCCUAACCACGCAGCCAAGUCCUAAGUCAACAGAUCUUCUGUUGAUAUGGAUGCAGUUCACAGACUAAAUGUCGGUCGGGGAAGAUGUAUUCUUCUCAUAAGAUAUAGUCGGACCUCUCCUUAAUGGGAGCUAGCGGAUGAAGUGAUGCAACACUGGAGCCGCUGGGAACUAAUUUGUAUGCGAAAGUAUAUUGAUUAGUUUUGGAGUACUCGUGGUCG; conditions: 30 °C;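 further: selection with 25 µg/mL kanamycin versus none on LB agar overnight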
Use -3 as the dividing line for self-splicing fitness (ln), with the line itself on the class 1 side and lower values as class 0.

Recorded results for 5 sequences are shown here.
* AGCCAGCAAUAUUACGUUGU | class 0
* CUCCAGCAAUAUUACGCACU | class 1
* UGAUAGCAAUAUUACGCUCU | class 1
* ACAUAGCAAUAUUACGCGGC | class 0
* UCUCAGCAAUAUUACGUGGA | class 0

Could you now consider this next sequence?
hey, is self-splicing fitness (ln) for this one >= -3? CGAAAGCAAUAUUACGUCAA class 0

###

test: self-splicing fitness, log relative to wild type (ln ratio); higher = more splicing; Tetrahymena group I intron in knt gene, E. coli kanamycin selection, DiMSum; sequences stand for … in CUCUCU…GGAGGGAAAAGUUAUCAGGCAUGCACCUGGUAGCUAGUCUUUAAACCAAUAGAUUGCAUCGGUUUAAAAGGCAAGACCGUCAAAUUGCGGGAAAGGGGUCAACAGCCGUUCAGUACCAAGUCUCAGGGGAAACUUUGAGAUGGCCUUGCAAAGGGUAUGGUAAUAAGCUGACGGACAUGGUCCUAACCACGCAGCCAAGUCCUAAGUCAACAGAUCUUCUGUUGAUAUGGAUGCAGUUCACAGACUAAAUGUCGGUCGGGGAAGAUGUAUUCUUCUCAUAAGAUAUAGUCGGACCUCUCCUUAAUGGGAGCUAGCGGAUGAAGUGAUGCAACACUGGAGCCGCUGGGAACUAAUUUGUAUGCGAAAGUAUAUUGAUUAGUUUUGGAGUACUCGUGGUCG; settings: 30 °C
Observation Type: self-splicing fitness (ln)

• CGCUAGCAAUAUUACGCCAG = -3.09
• UCGAAGCAAUAUUACGAUGC = -2.65
• UAUAAGCAAUAUUACGAGAU = -4.28

Turning to the following sequence.
For GUACAGCAAUAUUACGUUAG , what is its reported self-splicing fitness (ln)? -2.37

###

experiment: self-splicing fitness, log relative to wild type (ln ratio); higher = more splicing; Tetrahymena group I intron in knt gene, E. coli kanamycin selection, DiMSum; sequences stand for … in CUCUCU…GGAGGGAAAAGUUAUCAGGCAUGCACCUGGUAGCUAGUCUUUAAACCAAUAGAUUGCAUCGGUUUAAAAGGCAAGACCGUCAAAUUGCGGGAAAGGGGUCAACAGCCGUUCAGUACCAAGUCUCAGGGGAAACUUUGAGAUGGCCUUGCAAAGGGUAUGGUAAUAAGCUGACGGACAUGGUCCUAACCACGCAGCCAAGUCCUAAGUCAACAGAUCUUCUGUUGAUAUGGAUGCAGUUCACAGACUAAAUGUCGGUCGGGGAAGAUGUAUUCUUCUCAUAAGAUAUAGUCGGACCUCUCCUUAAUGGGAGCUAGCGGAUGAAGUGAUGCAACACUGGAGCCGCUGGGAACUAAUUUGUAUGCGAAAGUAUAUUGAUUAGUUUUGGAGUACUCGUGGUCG; settings: 30 °C
Category key, based on recorded self-splicing fitness (ln): LOW = under -3, MEDIUM = from -3 up to -2, HIGH = -2 and over

Recorded results for 5 sequences are shown here.
* CAGCAGCAAUAUUACGACCA | HIGH
* UCGCAGCAAUAUUACGAUAC | LOW
* GAUCAGCAAUAUUACGAAGA | HIGH
* GGCUAGCAAUAUUACGCUCG | MEDIUM
* ACCAAGCAAUAUUACGCGGC | LOW

Which self-splicing fitness (ln) category applies to GCAGAGCAAUAUUACGGUCG here? LOW

Same read-out for UUGUAGCAAUAUUACGCAAA ? MEDIUM

Same read-out for AUCUAGCAAUAUUACGGGCC ? LOW

Same read-out for GGGUAGCAAUAUUACGCGAG ? HIGH
